These measurements were taken from patent US20250051347A1.

As shown below, each of these compounds has a reported DC50 value.
molecular target: androgen receptor (AR) splicing variant AR-v7 (Homo sapiens); construct: The degradation activity of compounds on AR-v7 in 22RV1 cells; host or cells: 22RV1 cells; experiment: Degradation activity on androgen receptor splicing variant AR-v7 in 22RV1 cells (ELISA); type: cell-based; conditions: AR-v7 degradation in 22RV1 cells, 48 h, class symbols
Sequence (P10275 1-644 isoform P10275-3): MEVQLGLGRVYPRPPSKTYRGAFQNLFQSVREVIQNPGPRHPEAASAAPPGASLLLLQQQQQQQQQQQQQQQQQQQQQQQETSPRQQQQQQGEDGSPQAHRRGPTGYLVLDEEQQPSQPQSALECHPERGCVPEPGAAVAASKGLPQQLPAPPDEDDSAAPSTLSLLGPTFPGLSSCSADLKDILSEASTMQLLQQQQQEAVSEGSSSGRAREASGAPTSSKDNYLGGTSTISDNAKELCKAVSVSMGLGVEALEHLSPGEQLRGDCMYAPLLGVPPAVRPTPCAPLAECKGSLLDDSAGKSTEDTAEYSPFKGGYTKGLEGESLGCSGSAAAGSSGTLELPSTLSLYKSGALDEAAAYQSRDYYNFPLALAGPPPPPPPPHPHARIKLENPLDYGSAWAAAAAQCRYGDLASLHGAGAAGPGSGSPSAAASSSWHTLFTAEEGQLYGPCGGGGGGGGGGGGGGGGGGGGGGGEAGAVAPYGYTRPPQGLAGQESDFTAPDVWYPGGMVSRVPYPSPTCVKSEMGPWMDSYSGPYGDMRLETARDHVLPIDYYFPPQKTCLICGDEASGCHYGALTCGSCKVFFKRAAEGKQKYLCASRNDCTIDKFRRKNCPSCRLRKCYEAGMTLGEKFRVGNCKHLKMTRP
Experimental Readout: DC50

| Compound | Experimental Readout | Result |
| --- | --- | --- |
| CN1CCN(c2nccc(COc3ccc(C(C)(C)c4ccc(OCCCNc5ccc6c(c5)C(=O)N(C5CCC(=O)NC5=O)C6=O)cc4)cc3)n2)CC1 (centres unmarked) | DC50 | 11 to 100 nM |
| CC(C)(c1ccc(Oc2cncc(-n3nccn3)n2)cc1)c1ccc(O[C@H]2C[C@H](Nc3ccc4c(c3)C(=O)N(C3CCC(=O)NC3=O)C4=O)C2)cc1 (some centres unmarked) | DC50 | < 10 nM |
| CC(C)(c1ccc(Oc2ccc(-n3ccnn3)nc2)cc1)c1ccc(O[C@H]2C[C@H](Nc3ccc4c(c3)C(=O)N(C3CCC(=O)NC3=O)C4=O)C2)cc1 (some centres unmarked) | DC50 | < 10 nM |
| CC(C)(c1ccc(Oc2ncc(N3CC4(COC4)C3)cn2)cc1)c1ccc(O[C@H]2C[C@H](Nc3ccc4c(c3)C(=O)N(C3CCC(=O)NC3=O)C4=O)C2)cc1 (some centres unmarked) | DC50 | < 10 nM |
| CC(C)(c1ccc(Oc2ccc(N3CC(N4CC(F)C4)C3)nn2)cc1)c1ccc(O[C@H]2C[C@H](Nc3ccc4c(c3)C(=O)N(C3CCC(=O)NC3=O)C4=O)C2)cc1 (some centres unmarked) | DC50 | 101 to 1000 nM |
